- target.under.test: GluN1/GluN2B NMDARs (Rattus norvegicus, UniProt P35439+Q00960)
- Sequence (Q00960 27-1482, other chains not shown): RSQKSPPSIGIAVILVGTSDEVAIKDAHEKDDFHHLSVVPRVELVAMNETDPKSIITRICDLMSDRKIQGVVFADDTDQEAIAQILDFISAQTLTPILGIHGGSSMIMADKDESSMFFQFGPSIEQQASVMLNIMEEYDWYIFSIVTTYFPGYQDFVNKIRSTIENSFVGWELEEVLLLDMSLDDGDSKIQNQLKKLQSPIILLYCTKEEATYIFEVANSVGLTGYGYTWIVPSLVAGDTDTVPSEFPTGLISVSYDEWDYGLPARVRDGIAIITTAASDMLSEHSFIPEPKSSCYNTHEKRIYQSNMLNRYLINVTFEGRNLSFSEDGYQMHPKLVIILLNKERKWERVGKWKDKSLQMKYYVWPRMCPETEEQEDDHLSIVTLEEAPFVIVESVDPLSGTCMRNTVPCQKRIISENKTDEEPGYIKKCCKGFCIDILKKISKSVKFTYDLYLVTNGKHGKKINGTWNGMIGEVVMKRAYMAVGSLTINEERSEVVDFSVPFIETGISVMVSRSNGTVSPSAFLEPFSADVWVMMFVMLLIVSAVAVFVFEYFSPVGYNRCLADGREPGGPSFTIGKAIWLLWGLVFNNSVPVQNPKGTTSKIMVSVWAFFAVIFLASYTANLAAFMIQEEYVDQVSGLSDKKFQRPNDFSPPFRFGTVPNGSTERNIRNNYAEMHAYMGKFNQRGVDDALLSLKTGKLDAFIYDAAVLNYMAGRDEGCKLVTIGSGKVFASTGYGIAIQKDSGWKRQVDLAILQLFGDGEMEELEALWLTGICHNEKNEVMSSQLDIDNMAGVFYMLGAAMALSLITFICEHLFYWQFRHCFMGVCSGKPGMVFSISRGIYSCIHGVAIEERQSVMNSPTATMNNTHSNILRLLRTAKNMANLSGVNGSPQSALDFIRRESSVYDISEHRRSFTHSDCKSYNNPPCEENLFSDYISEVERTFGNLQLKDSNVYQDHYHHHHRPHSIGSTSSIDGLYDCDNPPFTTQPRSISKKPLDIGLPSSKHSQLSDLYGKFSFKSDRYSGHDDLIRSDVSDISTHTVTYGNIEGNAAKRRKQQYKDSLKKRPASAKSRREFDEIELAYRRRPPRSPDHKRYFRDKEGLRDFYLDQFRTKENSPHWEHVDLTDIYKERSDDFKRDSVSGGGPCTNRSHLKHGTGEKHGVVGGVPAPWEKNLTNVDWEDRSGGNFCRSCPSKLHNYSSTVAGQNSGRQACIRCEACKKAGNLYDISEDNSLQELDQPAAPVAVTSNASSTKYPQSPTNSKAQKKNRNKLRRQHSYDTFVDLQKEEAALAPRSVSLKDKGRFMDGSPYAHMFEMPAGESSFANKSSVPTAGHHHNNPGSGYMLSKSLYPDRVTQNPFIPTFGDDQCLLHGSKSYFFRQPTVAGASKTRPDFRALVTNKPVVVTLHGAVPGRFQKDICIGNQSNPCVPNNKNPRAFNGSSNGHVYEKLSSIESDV
- test.description: Two-electrode voltage-clamp recordings, Xenopus laevis oocytes expressing GluN1/GluN2B
- Assay type: cell-based
- condition: +EU1794-27 10 µM; glutamate/glycine 100/30 µM; read-out: EU1794-2 IC50 (µM) [conf. int.]
quantity.measured: IC50 (µM)
Lab book: enter the figure in µM, no units written.

Entry CCOC(=O)c1c(NC(=O)CC2SC(=N)NC2=O)sc2c1CCC(C)C2 (stereo not shown) needs its IC50 filled in; supply it.
3.5

###

- target.under.test: GluN1/GluN2B NMDARs (Rattus norvegicus, UniProt P35439+Q00960)
- test.description: Two-electrode voltage-clamp recordings, Xenopus laevis oocytes expressing GluN1/GluN2B
- Type: cell-based
- condition: read-out: IC50 (µM) [conf. int.]
quantity.measured: IC50 (µM)
The answer is to be given in µM; state only the numeric part.

[[record]]
compound = "CCOC(=O)c1c(NC(=O)CC2SC(=N)NC2=O)sc2c1CCCC2 (centres unmarked)"
measurement = 2.6


Next:
For the compound CCOC(=O)c1c(NC(=O)CC2SC(=N)NC2=O)sc2c1CCC(C)C2 (centres unmarked) , report IC50.
1.2

###

Each entry below carries its recorded EC50.
- target.under.test: GluN1/GluN2A NMDARs (Rattus norvegicus, UniProt P35439+Q00959)
- Sequence (Q00959 23-1464, other chains not shown): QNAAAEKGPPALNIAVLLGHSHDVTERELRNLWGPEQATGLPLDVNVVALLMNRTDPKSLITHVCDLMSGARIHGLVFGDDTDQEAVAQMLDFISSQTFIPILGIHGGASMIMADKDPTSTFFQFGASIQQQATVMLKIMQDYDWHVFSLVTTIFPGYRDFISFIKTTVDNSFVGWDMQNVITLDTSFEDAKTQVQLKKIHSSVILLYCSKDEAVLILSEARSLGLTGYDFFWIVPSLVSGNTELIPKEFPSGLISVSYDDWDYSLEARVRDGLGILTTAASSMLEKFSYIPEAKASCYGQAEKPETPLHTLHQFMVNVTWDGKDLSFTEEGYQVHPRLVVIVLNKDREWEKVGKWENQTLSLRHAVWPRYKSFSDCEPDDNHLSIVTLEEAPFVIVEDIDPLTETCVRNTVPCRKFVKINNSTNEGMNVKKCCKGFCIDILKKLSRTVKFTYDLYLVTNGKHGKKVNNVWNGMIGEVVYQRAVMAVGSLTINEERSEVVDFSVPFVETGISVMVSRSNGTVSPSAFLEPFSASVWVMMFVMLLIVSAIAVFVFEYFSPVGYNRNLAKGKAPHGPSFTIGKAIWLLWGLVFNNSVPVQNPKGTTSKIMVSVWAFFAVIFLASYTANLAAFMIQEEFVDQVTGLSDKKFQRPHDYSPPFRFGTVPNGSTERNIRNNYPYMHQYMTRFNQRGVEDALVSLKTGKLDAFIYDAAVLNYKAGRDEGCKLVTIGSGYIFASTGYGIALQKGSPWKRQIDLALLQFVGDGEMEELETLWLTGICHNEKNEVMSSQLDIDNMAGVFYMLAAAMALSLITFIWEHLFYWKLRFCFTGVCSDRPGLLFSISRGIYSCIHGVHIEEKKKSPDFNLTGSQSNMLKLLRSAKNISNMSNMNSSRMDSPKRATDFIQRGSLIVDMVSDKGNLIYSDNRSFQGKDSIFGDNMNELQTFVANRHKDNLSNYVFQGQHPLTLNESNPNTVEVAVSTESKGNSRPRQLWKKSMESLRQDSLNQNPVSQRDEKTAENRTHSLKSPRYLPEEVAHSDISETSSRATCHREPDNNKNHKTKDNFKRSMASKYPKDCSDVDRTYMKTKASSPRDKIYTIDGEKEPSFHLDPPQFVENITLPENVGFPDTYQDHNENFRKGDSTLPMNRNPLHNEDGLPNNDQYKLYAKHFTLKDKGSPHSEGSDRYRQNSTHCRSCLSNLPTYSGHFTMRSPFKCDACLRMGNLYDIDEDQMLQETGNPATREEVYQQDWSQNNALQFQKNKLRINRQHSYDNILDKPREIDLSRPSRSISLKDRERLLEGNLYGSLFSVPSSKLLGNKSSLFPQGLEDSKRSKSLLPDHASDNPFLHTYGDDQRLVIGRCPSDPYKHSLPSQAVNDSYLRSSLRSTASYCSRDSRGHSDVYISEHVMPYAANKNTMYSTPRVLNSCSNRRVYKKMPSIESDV
- test.description: Two-electrode voltage-clamp recordings, Xenopus laevis oocytes expressing GluN1/GluN2A
- Format: cell-based
- condition: saturating glutamate/glycine 100/30 µM; mean [95% CI]; - = not fit, response at 30 µM differed by no more than 15% from control; read-out: EC50 (µM) [conf. int.]
Reply numerically in µM, unit not repeated.

Enter measured EC50, system GluN1/GluN2A NMDARs (Rattus norvegicus, UniProt P35439+Q00959), for the compound shown: CC(C)OC(=O)c1c(NC(=O)CC2SC(=N)NC2=O)sc2c1CCCC2 (stereo not shown)
18

Report EC50 from GluN1/GluN2A NMDARs (Rattus norvegicus, UniProt P35439+Q00959) testing of CC1CCc2c(sc(NC(=O)CC3SC(=N)NC3=O)c2C(=O)OC(C)C)C1 (stereo not shown)
1.1

###

- target.under.test: GluN1/GluN2A NMDARs (Rattus norvegicus, UniProt P35439+Q00959)
- test.description: Two-electrode voltage-clamp recordings, Xenopus laevis oocytes expressing GluN1/GluN2A
- Assay type: cell-based
- condition: +EU1794-27 3 µM; glutamate/glycine 100/30 µM; read-out: EU1794-2 IC50 (µM) [conf. int.]
- Description: cDNAs for rat wild type NMDAR subunits GluN1-1a (GenBank U11418, U08261; hereafter GluN1 or GluN1a), GluN1-1b (U08263, hereafter GluN1b), GluN2A (D13211), GluN2B (U11419), GluN2C (M91563), and GluN2D (L31611, modified as described in [Monyer et al., 1994]) were provided by Drs. S. Heinemann (Salk Institute), S. Nakanishi (Kyoto University), and P. Seeburg (University of Heidelberg). […]
quantity.measured: IC50 (µM)
Your answer is read as µM, so omit the unit and give the number.

Please look at CCOC(=O)c1c(NC(=O)CC2SC(=N)NC2=O)sc2c1CCC(C)C2 (stereo not shown) [EU1794-2] and tell me its recorded IC50 on GluN1/GluN2A NMDARs (Rattus norvegicus, UniProt P35439+Q00959).
2.5

###

- target.under.test: GluN1/GluN2D NMDARs (Rattus norvegicus, UniProt P35439+Q62645)
- Sequence (Q62645 28-1323, other chains not shown): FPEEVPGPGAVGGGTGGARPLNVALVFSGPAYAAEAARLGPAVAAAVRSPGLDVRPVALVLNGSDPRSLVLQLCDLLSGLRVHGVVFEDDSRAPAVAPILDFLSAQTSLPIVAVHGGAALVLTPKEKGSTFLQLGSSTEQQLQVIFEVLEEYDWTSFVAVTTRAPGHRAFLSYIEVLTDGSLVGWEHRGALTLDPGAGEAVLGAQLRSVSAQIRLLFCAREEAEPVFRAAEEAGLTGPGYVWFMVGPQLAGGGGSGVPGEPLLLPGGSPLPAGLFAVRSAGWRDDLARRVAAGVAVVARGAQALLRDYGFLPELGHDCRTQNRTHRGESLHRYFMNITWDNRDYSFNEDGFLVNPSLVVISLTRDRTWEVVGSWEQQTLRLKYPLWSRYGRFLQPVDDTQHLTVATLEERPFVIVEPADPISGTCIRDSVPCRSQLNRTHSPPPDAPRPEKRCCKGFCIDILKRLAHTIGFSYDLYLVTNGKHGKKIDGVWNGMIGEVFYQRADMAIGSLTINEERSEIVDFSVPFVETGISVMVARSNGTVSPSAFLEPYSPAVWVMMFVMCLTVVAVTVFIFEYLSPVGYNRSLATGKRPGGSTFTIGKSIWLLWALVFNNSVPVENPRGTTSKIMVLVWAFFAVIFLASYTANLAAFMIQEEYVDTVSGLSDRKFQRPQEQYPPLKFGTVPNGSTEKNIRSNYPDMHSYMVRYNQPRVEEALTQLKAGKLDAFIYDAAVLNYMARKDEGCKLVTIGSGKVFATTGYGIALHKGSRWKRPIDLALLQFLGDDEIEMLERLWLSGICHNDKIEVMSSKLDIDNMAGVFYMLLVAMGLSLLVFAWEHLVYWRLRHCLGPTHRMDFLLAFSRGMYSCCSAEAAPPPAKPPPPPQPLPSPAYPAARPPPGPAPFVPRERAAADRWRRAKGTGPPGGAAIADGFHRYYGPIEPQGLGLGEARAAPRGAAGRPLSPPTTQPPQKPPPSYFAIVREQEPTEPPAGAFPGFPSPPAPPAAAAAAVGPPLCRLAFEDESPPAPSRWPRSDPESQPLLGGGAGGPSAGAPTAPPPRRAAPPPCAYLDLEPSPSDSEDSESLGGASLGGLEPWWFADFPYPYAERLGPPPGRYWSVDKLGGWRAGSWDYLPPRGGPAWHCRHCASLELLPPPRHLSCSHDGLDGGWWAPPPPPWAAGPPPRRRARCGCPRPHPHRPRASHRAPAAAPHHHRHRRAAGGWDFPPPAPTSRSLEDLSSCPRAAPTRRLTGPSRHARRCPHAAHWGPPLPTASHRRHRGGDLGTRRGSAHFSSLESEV
- test.description: Two-electrode voltage-clamp recordings, Xenopus laevis oocytes expressing GluN1/GluN2D
- Type: cell-based
- condition: +EU1794-27 20 µM; glutamate/glycine 100/30 µM; read-out: EU1794-2 IC50 (µM) [conf. int.]
quantity.measured: IC50
The number alone won't do; follow it with the unit.

Give IC50 for the following compound: CCOC(=O)c1c(NC(=O)CC2SC(=N)NC2=O)sc2c1CCC(C)C2 (stereo not shown)
7.3 µM

###

- target.under.test: GluN1/GluN2D NMDARs (Rattus norvegicus, UniProt P35439+Q62645)
- test.description: Two-electrode voltage-clamp recordings, Xenopus laevis oocytes expressing GluN1/GluN2D
- Format: cell-based
- condition: sub-saturating glutamate/glycine 0.6/0.2 µM; read-out: EC50 (µM) [conf. int.]
quantity.measured: EC50 (µM)
Report only the number, with the unit µM understood.

[[record]]
compound = "CC(C)(C)OC(=O)c1c(NC(=O)CC2SC(=N)NC2=O)sc2c1CCCC2 (centres unmarked) [EU1794-27]"
quantity_measured = "EC50"
measurement = 8.3


Now, please, on to the next compound.
Answer with the recorded EC50 for the compound listed here: CCOC(=O)c1c(NC(=O)CC2SC(=N)NC2=O)sc2c1CCC(C)C2 (centres unmarked) [EU1794-2]
0.32

###

- target.under.test: GluN1/GluN2B NMDARs (Rattus norvegicus, UniProt P35439+Q00960)
- test.description: Two-electrode voltage-clamp recordings, Xenopus laevis oocytes expressing GluN1/GluN2B
- Assay type: cell-based
- condition: saturating glutamate/glycine 100/30 µM; mean ± SEM; read-out: Maximal Degree of Modulation (% of control)
- Excerpt: cDNAs for rat wild type NMDAR subunits GluN1-1a (GenBank U11418, U08261; hereafter GluN1 or GluN1a), GluN1-1b (U08263, hereafter GluN1b), GluN2A (D13211), GluN2B (U11419), GluN2C (M91563), and GluN2D (L31611, modified as described in [Monyer et al., 1994]) were provided by Drs. S. Heinemann (Salk Institute), S. Nakanishi (Kyoto University), and P. Seeburg (University of Heidelberg). […]
Rule for this label: Satisfied means Emax is less than 70%; Not satisfied means Emax is at least 70%.

Consider the following illustrative entries.
[[record]]
compound = "CCCCOC(=O)c1c(NC(=O)CC2SC(=N)NC2=O)sc2c1CCCC2 (stereo not shown)"
target_under_test = "GluN1/GluN2B NMDARs (Rattus norvegicus, UniProt P35439+Q00960)"
category_label = "Not satisfied"

[[record]]
compound = "CC1CCc2c(sc(NC(=O)CC3SC(=N)NC3=O)c2C(=O)OC(C)C)C1 (stereo not shown)"
target_under_test = "GluN1/GluN2B NMDARs (Rattus norvegicus, UniProt P35439+Q00960)"
category_label = "Satisfied"

[[record]]
compound = "CC(C)(C)OC(=O)c1c(NC(=O)CC2SC(=N)NC2=O)sc2c1CCCC2 (stereo not shown)"
target_under_test = "GluN1/GluN2B NMDARs (Rattus norvegicus, UniProt P35439+Q00960)"
category_label = "Not satisfied"

[[record]]
compound = "CCOC(=O)c1c(NC(=O)CC2SC(=N)NC2=O)sc2c1CCCC2 (stereo not shown)"
target_under_test = "GluN1/GluN2B NMDARs (Rattus norvegicus, UniProt P35439+Q00960)"
category_label = "Satisfied"

[[record]]
compound = "CCOC(=O)c1c(NC(=O)CC2SC(=N)NC2=O)sc2c1CCC(C)C2 (stereo not shown)"
target_under_test = "GluN1/GluN2B NMDARs (Rattus norvegicus, UniProt P35439+Q00960)"
category_label = "Satisfied"


Consider now this further compound.
In plain terms, does N=C1NC(=O)C(CC(=O)Nc2sc3c(c2C(=O)OCc2ccccc2)CCCC3)S1 (stereo not shown) come in under 70% for Emax?
Not satisfied

###

- target.under.test: GluN1/GluN2C NMDARs (Rattus norvegicus, UniProt P35439+Q00961)
- test.description: Two-electrode voltage-clamp recordings, Xenopus laevis oocytes expressing GluN1/GluN2C
- Type: cell-based
- condition: +EU1794-2 1 µM; glutamate/glycine 100/30 µM; read-out: EU1794-27 EC50 (µM) [conf. int.]
quantity.measured: EC50 (µM)
API: value field is a number in µM; no unit string.

Report measured EC50; entry is CC(C)(C)OC(=O)c1c(NC(=O)CC2SC(=N)NC2=O)sc2c1CCCC2 (stereo not shown)
7.3

###

- target.under.test: GluN1/GluN2D NMDARs (Rattus norvegicus, UniProt P35439+Q62645)
- test.description: Two-electrode voltage-clamp recordings, Xenopus laevis oocytes expressing GluN1/GluN2D
- Format: cell-based
- condition: +EU1794-2 3 µM; glutamate/glycine 100/30 µM; read-out: EU1794-27 EC50 (µM) [conf. int.]
quantity.measured: EC50 (µM)
# number only, unit µM dropped from output

Quote EC50 reported for CC(C)(C)OC(=O)c1c(NC(=O)CC2SC(=N)NC2=O)sc2c1CCCC2 (stereo not shown) please.
7.8
